# credit: PubChem BioAssay

Assay: growth of efflux-deficient E. coli DRC39 – strain DRC39, OD650, 48 h, E. coli filamentation inducers, primary screen (AID 1179);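 note: screen aims at cell division blockers that make cells filament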
Settings: E. coli DRC39 delta-acrAB growth, higher = more signal, called active from +8 up or from −8 down
Please enter Condition met where z-score is greater than or equal to 0.1, and Condition not met where it is lower.

| compound | groupLabel |
| --- | --- |
| COC(=O)[C@@]1(Cc2ccc(F)cc2)[C@H]2c3cc(C(=O)N(C)C)n(CCCNc4ccc(C(F)(F)F)cc4Cl)c3C[C@H]2CN1C(=O)c1ccccc1 | Condition met |
| C[N+](C)(C)CCCCNC(=O)[C@H]1C[C@H]2C(=O)N3CCC[C@H]3C(=O)N2[C@H]1c1ccc(O)cc1 | Condition not met |
| Oc1ccc2cc[n+](Cc3cccc(OC(F)(F)F)c3)cc2c1 | Condition met |
| O=C1OCCC/C=C\[C@H]2OC34C=CCN(Cn5nnc6ccccc65)C(=O)[C@H]3N(CCCO)C(=O)[C@@H]4C12 (stereo not given in full) | Condition not met |
| COCCOC(=O)N1C(=O)[C@@]2(c3cc(C#Cc4ccc(OC)cc4)ccc31)[C@H](c1ccc(O)cc1)N1[C@H](c3ccccc3)[C@H](c3ccccc3)OC(=O)[C@H]1[C@@H]2C(=O)N1CCN(c2ncccn2)CC1 | Condition not met |
| COc1ccc(C#Cc2ccc3c(c2)[C@]2(C(=O)N3)[C@H](C(=O)N3CCN(c4ncccn4)CC3)[C@H]3C(=O)O[C@H](c4ccccc4)[C@H](c4ccccc4)N3[C@@H]2c2ccc(O)cc2)cc1 | Condition met |
| CC(C)C[C@@H]1NC(=O)[C@@H]2C[C@H](C(=O)NCCCCN(C)C)[C@H](c3ccc(O)cc3)N2C1=O | Condition not met |
| CCOC(=O)C=Cc1cccc(OC)c1O | Condition not met |
| O=C(NCC(O)CO)[C@@]1(Cc2ccccc2)N=C(c2ccc(OCCCO)cc2)O[C@H]1c1ccccc1 (stereo not given in full) | Condition met |
| C=C(/C(=C/C[C@@H](OC(=O)c1ccncc1)c1ccc(CO)o1)c1cc(C(=O)OC)ccc1OC)C(C)C | Condition met |
| COc1ccc([Si](C)(C)[C@@H]2[C@@H](CC(=O)N3Cc4ccccc4C[C@H]3CO)O[C@]3(C(=O)N(Cc4cccc(N5C(=O)COc6ccccc65)c4)c4ccccc43)[C@H]2C)cc1 | Condition met |
| CCOC1=C2C(c3ccc(C)cc3)N(S(=O)(=O)c3ccc(C)cc3)CC2n2c(=O)n(-c3ccccc3)c(=O)n2C1 (stereo not given) | Condition met |
| O=[N+]([O-])c1ccc(C[n+]2ccc(CCCO)cc2)o1 | Condition not met |
| C=CCC(OC(C)=O)[C@@H]1[C@@H](N(Cc2cc3ccccc3o2)C(=O)c2cccc3ccccc23)c2cc(OCCCO)ccc2N1C(=O)Cc1ccc2ccccc2c1 (stereo not given in full) | Condition not met |
| O=C1OCC=C[C@H]2OC34C=CCN(Cc5ccccc5)C(=O)[C@H]3N(CCCO)C(=O)[C@@H]4[C@@H]12 (stereo not given in full) | Condition met |
| CC(C)OC(=O)C1=CCC(c2cccc(Cl)c2)O1 (stereo not given) | Condition met |
| CCN(CC)c1ccc(N2CC=CC34O[C@@H]5/C=C\CCC(C)OC(=O)C5[C@H]3C(=O)N(CCCCCCO)[C@@H]4C2=O)cc1 (stereo not given in full) | Condition met |
| CS(=O)(=O)CCOC(=O)C1=CC(c2ccc(CO)cc2)=CC(c2cccs2)N(Cc2cccc(OC(F)(F)F)c2)C=C1C(=O)OCCS(C)(=O)=O (stereo not given) | Condition not met |
| [N-]=[N+]=NCc1ccccc1C[C@@]1(C(=O)NCc2ccccc2)N=C(c2ccc(OCCCO)cc2)O[C@@H]1c1ccccc1CN=[N+]=[N-] | Condition met |
| COC(=O)[C@@]1(Cc2ccc(OC)cc2)[C@H]2c3cc(C(=O)N(C)C)n(CCSCCO)c3C[C@H]2CN1C(=O)c1ccccc1 | Condition not met |
| C=C(COC)C(=O)CC[C@@H](OC(=O)c1ccccc1-c1ccccc1C(=O)O)c1ccc(CO)o1 | Condition not met |
| Cn1c2c(c3ccccc31)C(=O)C1NC2C=CC1(C)C(=O)OCc1ccccc1 (stereo not given) | Condition not met |
| COc1ccc([Si](C)(C)[C@@H]2[C@@H](CCO)O[C@]3(C(=O)N(Cc4ccc(N5C(=O)c6cccc7cccc5c67)cc4)c4ccccc43)[C@H]2C)cc1 | Condition met |
| CC(=O)N1Cc2ccccc2C[C@@]2(N=C(c3ccc(OCCCO)cc3)O[C@H]2c2ccccc2)C1=O | Condition met |
| C=CCOC(=O)[C@@H]1[C@H]2C(=O)O[C@H](c3ccccc3)[C@H](c3ccccc3)N2[C@H](c2ccc(OCCOC(=O)[C@H]3C[C@H]4C(=O)N[C@@H](CC(C)C)C(=O)N4[C@H]3c3cccc(OCCO)c3)cc2)[C@@]12C(=O)Nc1ccc(I)cc12 | Condition not met |
